Overview of recorded fraction ligated for various variants
B1: F1*; the commonest letter at each place (parent)
chain: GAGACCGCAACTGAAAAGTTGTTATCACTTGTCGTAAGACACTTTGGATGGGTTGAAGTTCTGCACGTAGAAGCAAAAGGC

# Variants of: B1
# Experiment Description: fraction ligated after 30 min (ligated reads / total reads); higher = more ligase activity
# Test Context: with F1*sub RNA substrate (template-directed ligation), 42 °C
API doc: respond with a numeric literal and nothing else, no unit.

> print(dat)
                            sequence.string          property  experimental.result
1  GAGACCGCAACTGAAAAGTTGTTATCACTTGTCGTAAGACTCTTTGGATGGGTTCAAGTTCTGCACGTAGAAGCAAAAGGC  fraction ligated                0.706

Ask: GET /values?readout=fraction ligated&item= "GAGACCGCAACTGAAAAGTTGTTATCACTTGTCGTAAGACACTGTGGATGGGTTGACGTTCTGCACGTAGAAGCAAAAGGC"
Reply: 0.816

Ask: GET /values?readout=fraction ligated&item= "GAGACCGCAACTGAAAAGTTGTTATCACTTGTCTTAAGACACTTTGGTTGGGTTGAAGTTCTGCACGTAGAAGCAAAAGGC"
Reply: 0.801
